I'd appreciate it if you could supply cell viability values for the items below.
system: ED cells (E. derm NBM-6, ATCC CCL-57); assay: cell viability (ATP, CellTiter-Glo) relative to untreated control (fraction of control); higher = less cytotoxic; details: 0.5 µM; incubation time: 144h
Where a name gives a salt, the structure may show the parent alone.
Give bare numbers.

# example entries with known answers
CCC[C@@]1(CCc2ccccc2)CC(O)=C([C@H](CC)c2cccc(NS(=O)(=O)c3ccc(C(F)(F)F)cn3)c2)C(=O)O1 : 1.01
CC(C)(C)NC(=O)[C@@H]1C[C@@H]2CCCC[C@@H]2CN1C[C@@H](O)[C@H](Cc1ccccc1)NC(=O)[C@H](CC(N)=O)NC(=O)c1ccc2ccccc2n1 : 1.02
CC(C)CN(C[C@@H](OP(=O)(O)O)[C@H](Cc1ccccc1)NC(=O)O[C@H]1CCOC1)S(=O)(=O)c1ccc(N)cc1 : 1.05
Cc1cn([C@H]2C[C@H](N=[N+]=[N-])[C@@H](CO)O2)c(=O)[nH]c1=O : 1.01
COC(=O)N[C@H](C(=O)N[C@@H](Cc1ccccc1)[C@@H](O)CN(Cc1ccc(-c2ccccn2)cc1)NC(=O)[C@@H](NC(=O)OC)C(C)(C)C)C(C)(C)C : 1.03

Let's switch to this compound now.
Consider CC(C)OC(=O)OCOP(=O)(CO[C@H](C)Cn1cnc2c(N)ncnc21)OCOC(=O)OC(C)C [tenofovir disoproxil fumarate] . Its measured cell viability is 1.02

###

I'd appreciate it if you could supply cell viability values for the items below.
tested on: ED cells (E. derm NBM-6, ATCC CCL-57); assay: cell viability (ATP, CellTiter-Glo) relative to untreated control (fraction of control); higher = less cytotoxic; details: 50 µM; incubation time: 72h
Numbers only.

Hi there! I need cell viability for each item below, if you can.
1. Cc1cc(C#N)cc(C)c1Oc1nc(Nc2ccc(C#N)cc2)nc(N)c1Br [etravirine]
2. CC(C)c1nc(CN(C)C(=O)N[C@H](C(=O)N[C@@H](Cc2ccccc2)C[C@H](O)[C@H](Cc2ccccc2)NC(=O)OCc2cncs2)C(C)C)cs1 [ritonavir]
3. CC(C)(C)NC(=O)[C@@H]1C[C@@H]2CCCC[C@@H]2CN1C[C@@H](O)[C@H](Cc1ccccc1)NC(=O)[C@H](CC(N)=O)NC(=O)c1ccc2ccccc2n1 [saquinavir]

1: 0.796; 2: 0.686; 3: 0.306

###

system: ED cells (E. derm NBM-6, ATCC CCL-57); assay: cell viability (ATP, CellTiter-Glo) relative to untreated control (fraction of control); higher = less cytotoxic; details: 10 µM; incubation time: 1h
Structures can show the parent of a compound that is named as a salt.
value.type: cell viability
Give bare numbers.

COC(=O)N[C@H](C(=O)N[C@@H](Cc1ccccc1)[C@@H](O)CN(Cc1ccc(-c2ccccn2)cc1)NC(=O)[C@@H](NC(=O)OC)C(C)(C)C)C(C)(C)C : 1.06
CCC[C@@]1(CCc2ccccc2)CC(O)=C([C@H](CC)c2cccc(NS(=O)(=O)c3ccc(C(F)(F)F)cn3)c2)C(=O)O1 : 1
CC(C)OC(=O)OCOP(=O)(CO[C@H](C)Cn1cnc2c(N)ncnc21)OCOC(=O)OC(C)C [tenofovir disoproxil fumarate] : 1.02
Cc1nnc(C(=O)NC(C)(C)c2nc(C(=O)NCc3ccc(F)cc3)c(O)c(=O)n2C)o1 : 1.08
CC(C)c1nc(CN(C)C(=O)N[C@H](C(=O)N[C@@H](Cc2ccccc2)C[C@H](O)[C@H](Cc2ccccc2)NC(=O)OCc2cncs2)C(C)C)cs1 : 1.03
O=C1Nc2ccc(Cl)cc2[C@@](C#CC2CC2)(C(F)(F)F)O1 : 0.985

Let's switch to this compound now.
Consider "Nc1nc(=O)n([C@@H]2CS[C@H](CO)O2)cc1F" . Its measured cell viability is 1.01

###

system: ED cells (E. derm NBM-6, ATCC CCL-57); assay: cell viability (ATP, CellTiter-Glo) relative to untreated control (fraction of control); higher = less cytotoxic; conditions: 10 µM; incubation time: 1h
value.type: cell viability
Numbers only.

# example entries with known answers
CC(C)CN(C[C@@H](OP(=O)(O)O)[C@H](Cc1ccccc1)NC(=O)O[C@H]1CCOC1)S(=O)(=O)c1ccc(N)cc1 [fosamprenavir] : 1.11
Cc1cn([C@H]2C[C@H](N=[N+]=[N-])[C@@H](CO)O2)c(=O)[nH]c1=O [zidovudine] : 1.04
Cc1ccnc2c1NC(=O)c1cccnc1N2C1CC1 [nevirapine] : 1.05

Let's switch to this molecule now.
Consider Cc1cc(C#N)cc(C)c1Oc1nc(Nc2ccc(C#N)cc2)nc(N)c1Br [etravirine] . Its measured cell viability is 0.693

###

I'd appreciate it if you could supply cell viability values for the items below.
system: ED cells (E. derm NBM-6, ATCC CCL-57); assay: cell viability (ATP, CellTiter-Glo) relative to untreated control (fraction of control); higher = less cytotoxic; conditions: 100 µM; incubation time: 72h
Where a name gives a salt, the structure may show the parent alone.
Give bare numbers.

# example entries with known answers
Cc1cc(C#N)cc(C)c1Oc1nc(Nc2ccc(C#N)cc2)nc(N)c1Br [etravirine] : 0.723
Nc1nc(=O)n([C@@H]2CS[C@H](CO)O2)cc1F [emtricitabine] : 1.03
O=C1Nc2ccc(Cl)cc2[C@@](C#CC2CC2)(C(F)(F)F)O1 [efavirenz] : 0.0176
COC(=O)N[C@H](C(=O)N[C@@H](Cc1ccccc1)[C@@H](O)CN(Cc1ccc(-c2ccccn2)cc1)NC(=O)[C@@H](NC(=O)OC)C(C)(C)C)C(C)(C)C [atazanavir] : 0.416
Cc1nnc(C(=O)NC(C)(C)c2nc(C(=O)NCc3ccc(F)cc3)c(O)c(=O)n2C)o1 [raltegravir] : 1.02

Hi there! I need cell viability for each item below, if you can.
1. Cc1ccnc2c1NC(=O)c1cccnc1N2C1CC1 [nevirapine]
2. Nc1nc(NC2CC2)c2ncn([C@H]3C=C[C@@H](CO)C3)c2n1 [abacavir]
3. CC(C)OC(=O)OCOP(=O)(CO[C@H](C)Cn1cnc2c(N)ncnc21)OCOC(=O)OC(C)C [tenofovir disoproxil fumarate]

1.02
0.745
0.643

###

I'd appreciate it if you could supply cell viability values for the items below.
tested on: ED cells (E. derm NBM-6, ATCC CCL-57); experiment: cell viability (ATP, CellTiter-Glo) relative to untreated control (fraction of control); higher = less cytotoxic; conditions: 300 µM; incubation time: 72h
Answers are plain numbers.

# example entries with known answers
Nc1nc(NC2CC2)c2ncn([C@H]3C=C[C@@H](CO)C3)c2n1 : 0.506
Nc1nc(=O)n([C@@H]2CS[C@H](CO)O2)cc1F : 0.999
Cc1cn([C@H]2C[C@H](N=[N+]=[N-])[C@@H](CO)O2)c(=O)[nH]c1=O : 1.08
CC(C)c1nc(CN(C)C(=O)N[C@H](C(=O)N[C@@H](Cc2ccccc2)C[C@H](O)[C@H](Cc2ccccc2)NC(=O)OCc2cncs2)C(C)C)cs1 : 0.00806

Hi there! I need cell viability for each item below, if you can.
1. Cc1cc(C#N)cc(C)c1Oc1nc(Nc2ccc(C#N)cc2)nc(N)c1Br
2. Cc1ccnc2c1NC(=O)c1cccnc1N2C1CC1
3. Cc1nnc(C(=O)NC(C)(C)c2nc(C(=O)NCc3ccc(F)cc3)c(O)c(=O)n2C)o1

0.412
0.924
0.963

###

test system: ED cells (E. derm NBM-6, ATCC CCL-57); assay: cell viability (ATP, CellTiter-Glo) relative to untreated control (fraction of control); higher = less cytotoxic; details: 10 µM; incubation time: 24h
I'd appreciate it if you could supply cell viability values for the items below.

# example entries with known answers
COC(=O)N[C@H](C(=O)N[C@@H](Cc1ccccc1)[C@@H](O)CN(Cc1ccc(-c2ccccn2)cc1)NC(=O)[C@@H](NC(=O)OC)C(C)(C)C)C(C)(C)C : 1.06
CCC[C@@]1(CCc2ccccc2)CC(O)=C([C@H](CC)c2cccc(NS(=O)(=O)c3ccc(C(F)(F)F)cn3)c2)C(=O)O1 : 1.03
CC(C)CN(C[C@@H](OP(=O)(O)O)[C@H](Cc1ccccc1)NC(=O)O[C@H]1CCOC1)S(=O)(=O)c1ccc(N)cc1 : 0.978

Hi there! I need cell viability for each item below, if you can.
1. O=C(NCc1c(F)cc(F)cc1F)c1cn2c(c(O)c1=O)C(=O)N1[C@H]3CC[C@H](C3)O[C@@H]1C2
2. CC(C)(C)NC(=O)[C@@H]1C[C@@H]2CCCC[C@@H]2CN1C[C@@H](O)[C@H](Cc1ccccc1)NC(=O)[C@H](CC(N)=O)NC(=O)c1ccc2ccccc2n1
3. O=C1Nc2ccc(Cl)cc2[C@@](C#CC2CC2)(C(F)(F)F)O1
4. Nc1ccn([C@@H]2CS[C@H](CO)O2)c(=O)n1

[1.01, 0.955, 0.999, 1.03]
